- target desc: Lck (Homo sapiens)
- Construct: Kinases are expressed as either kinase domains or full length constructs; made in house
- Sequence (P06239 whole entry, species assumed, the tested form may be a part): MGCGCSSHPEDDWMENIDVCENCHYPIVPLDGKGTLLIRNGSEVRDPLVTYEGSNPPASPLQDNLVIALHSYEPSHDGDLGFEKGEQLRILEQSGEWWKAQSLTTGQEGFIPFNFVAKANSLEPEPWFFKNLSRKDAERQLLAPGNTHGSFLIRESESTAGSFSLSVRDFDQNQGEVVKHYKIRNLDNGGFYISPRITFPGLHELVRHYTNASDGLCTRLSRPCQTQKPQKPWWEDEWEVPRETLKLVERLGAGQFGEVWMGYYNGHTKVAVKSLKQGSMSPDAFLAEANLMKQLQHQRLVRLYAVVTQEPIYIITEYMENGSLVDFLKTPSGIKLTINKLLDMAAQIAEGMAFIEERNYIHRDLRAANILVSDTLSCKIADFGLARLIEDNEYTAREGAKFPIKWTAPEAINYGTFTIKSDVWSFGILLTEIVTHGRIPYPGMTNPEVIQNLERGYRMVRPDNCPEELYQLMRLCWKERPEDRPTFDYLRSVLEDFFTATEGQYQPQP
- assay remarks: Kinase inhibition assay (33P transfer), Lck
- Assay type: biochemical
- cond: read-out: Lck-1
experimental endpoint: IC50

Here is how some compounds turned out for IC50.
COc1cc(Nc2ncnc(-n3c(NCc4ccc(C)cc4C)nc4ccccc43)n2)cc(OC)c1OC = 0.782 to 4.69 µM
CN(c1cccc(Cl)c1)c1ncnc(-n2c(N)nc3ccccc32)n1 = 1.14 to 6.82 µM
COc1cc(Nc2ncnc(-n3c(NCc4ccc(F)cc4)nc4ccccc43)n2)cc(OC)c1OC = > 8.97 µM

We now examine a further compound.
Request: State its IC50 for this compound: Brc1cccc(Nc2ncnc(Nc3ccc4c(cnn4Cc4ccccc4)c3)n2)c1
Result: 5.08 to 7.41 µM

====

As shown below, each of these compounds has a reported IC50 value.
- target desc: Itk (Homo sapiens)
- Construct: Kinases are expressed as either kinase domains or full length constructs; made in house
- Sequence (Q08881 1-620): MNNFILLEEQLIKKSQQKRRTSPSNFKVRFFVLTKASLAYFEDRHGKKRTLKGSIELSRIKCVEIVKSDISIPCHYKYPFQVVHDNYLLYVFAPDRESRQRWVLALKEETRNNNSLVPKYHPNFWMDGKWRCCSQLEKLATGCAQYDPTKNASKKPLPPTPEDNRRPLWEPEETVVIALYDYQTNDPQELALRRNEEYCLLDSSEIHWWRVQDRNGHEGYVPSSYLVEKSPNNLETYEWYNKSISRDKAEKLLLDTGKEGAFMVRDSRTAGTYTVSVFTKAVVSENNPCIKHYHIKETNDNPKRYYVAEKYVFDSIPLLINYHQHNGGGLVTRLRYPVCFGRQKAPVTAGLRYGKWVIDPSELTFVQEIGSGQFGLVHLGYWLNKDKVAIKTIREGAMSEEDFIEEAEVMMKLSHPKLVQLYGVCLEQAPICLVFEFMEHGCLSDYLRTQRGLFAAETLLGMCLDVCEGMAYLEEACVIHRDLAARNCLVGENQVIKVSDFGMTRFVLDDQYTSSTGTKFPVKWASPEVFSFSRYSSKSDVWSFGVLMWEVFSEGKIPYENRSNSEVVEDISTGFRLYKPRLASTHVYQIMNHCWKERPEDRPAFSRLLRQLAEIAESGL
- assay remarks: Kinase inhibition assay (33P transfer), Itk
- Type: biochemical
- cond: read-out: Itk-1

Request: State its IC50 for this compound: Cc1cccc(Nc2ncnc(N(C)c3cccc(Br)c3)n2)c1
Result: > 12.2 µM

Request: State its IC50 for this compound: O=C(O)Cc1cccc(Nc2ncnc(-n3c(NCc4ccccn4)nc4ccccc43)n2)c1
Result: > 9.95 µM

Request: State its IC50 for this compound: CN(c1cccc(Cl)c1)c1ncnc(Nc2ccccc2)n1
Result: > 14.4 µM

Request: State its IC50 for this compound: Nc1nc2ccccc2n1-c1ncnc(Nc2cccc(CC(=O)O)c2)n1
Result: > 12.5 µM

Request: State its IC50 for this compound: CC(C)(C)c1cc(Nc2ncnc(Nc3cccc(Cl)c3)n2)[nH]n1
Result: 1.16 to 6.98 µM

Request: State its IC50 for this compound: COc1cc(Nc2ncnc(N(C)c3ccc(F)c(Cl)c3)n2)cc(OC)c1OC
Result: > 10.7 µM

Request: State its IC50 for this compound: COc1ccc(CNc2nc3ccccc3n2-c2ncnc(Nc3cc(OC)c(OC)c(OC)c3)n2)cc1
Result: > 8.76 µM

Request: State its IC50 for this compound: COc1cc(Nc2ncnc(-n3c(NCc4ccc([N+](=O)[O-])cc4)nc4ccccc43)n2)cc(OC)c1OC
Result: 6.62 to 8.51 µM

Request: State its IC50 for this compound: NC(=O)c1ccc(Nc2ncnc(-c3cccnc3NCc3ccccc3)n2)cc1
Result: > 11.3 µM

Request: State its IC50 for this compound: O=C(O)Cc1cccc(Nc2ncnc(Nc3cc(-c4ccccc4)n[nH]3)n2)c1
Result: 1.03 to 6.2 µM

Request: State its IC50 for this compound: Nc1nc2ccccc2n1-c1ncnc(Nc2cccnc2)n1
Result: 1.31 to 7.89 µM
